tested on: normal skin fibroblast (WS1) cell line; assay: Cytotoxicity assay (resazurin reduction test), WS1; assay type: cell-based; conditions: Homo sapiens, WS1 healthy cells, 48 h incubation, read-out: IC50 (μM ± SD) WS1
I'd be grateful if you could share measured IC50 for these entries.
Write the number in µM without appending the unit.

GET /value?item= CC1CCC2(OC1)OC1CC3C4CC(O)C5CC(OC6OC(CO)C(OC7OC(CO)C(O)C(OC8OC(CO)C(O)C(O)C8O)C7OC7OC(CO)C(O)C(O)C7O)C(O)C6O)C(O)CC5(C)C4CCC3(C)C1C2C (centres unmarked) &field=IC50 returns 3

GET /value?item= C[C@@H]1CC[C@@]2(OC1)O[C@H]1C[C@H]3[C@@H]4C[C@@H](O)[C@H]5C[C@@H](O[C@@H]6O[C@H](CO)[C@H](O[C@@H]7O[C@H](CO)[C@@H](O)[C@H](O)[C@H]7O[C@@H]7O[C@H](CO)[C@@H](O)[C@H](O)[C@H]7O)[C@H](O)[C@H]6O)[C@H](O)C[C@]5(C)[C@H]4CC[C@]3(C)[C@H]1[C@@H]2C &field=IC50 returns 14.5

GET /value?item= CC1CCC2(OC1)OC1CC3C4CC(O)C5CC(OC6OC(CO)C(OC7OC(CO)C(O)C(OC8OC(CO)C(O)C(O)C8O)C7OC7OC(CO)C(O)C(O)C7O)C(O)C6O)CCC5(C)C4CCC3(C)C1C2C (centres unmarked) [Eruboside B (2), eruboside B] &field=IC50 returns 3.6

GET /value?item= C[C@@H]1CC[C@@]2(OC1)O[C@H]1C[C@H]3[C@@H]4C[C@@H](O)[C@H]5C[C@@H](O[C@@H]6O[C@H](CO)[C@H](O[C@@H]7O[C@H](CO)[C@@H](O)[C@H](O[C@@H]8OC[C@@H](O)[C@H](O)[C@H]8O)[C@H]7O[C@@H]7O[C@H](CO)[C@@H](O)[C@H](O)[C@H]7O)[C@H](O)[C@H]6O)CC[C@]5(C)[C@H]4CC[C@]3(C)[C@H]1[C@@H]2C &field=IC50 returns 3.1

GET /value?item= C[C@@H]1CC[C@@]2(OC1)O[C@H]1C[C@H]3[C@@H]4C[C@@H](O)[C@H]5C[C@@H](O[C@@H]6O[C@H](CO)[C@H](O[C@@H]7O[C@H](CO)[C@@H](O)[C@H](O[C@@H]8O[C@H](CO)[C@@H](O)[C@H](O)[C@H]8O)[C@H]7O[C@@H]7O[C@H](CO)[C@@H](O)[C@H](O[C@@H]8O[C@H](CO)[C@@H](O)[C@H](O)[C@H]8O)[C@H]7O)[C@H](O)[C@H]6O)[C@H](O)C[C@]5(C)[C@H]4CC[C@]3(C)[C@H]1[C@@H]2C [Leucospiroside A (5)] &field=IC50 returns 4.55

GET /value?item= O=c1[nH]cc(F)c(=O)[nH]1 [5-fluorouracil, reference compound] &field=IC50 returns 20

GET /value?item= C[C@@H]1CC[C@@]2(OC1)O[C@H]1C[C@H]3[C@@H]4C[C@@H](O)[C@H]5C[C@@H](O[C@@H]6O[C@H](CO)[C@H](O[C@@H]7O[C@H](CO)[C@@H](O)[C@H](O[C@@H]8O[C@H](CO)[C@@H](O)[C@H](O)[C@H]8O)[C@H]7O[C@@H]7O[C@H](CO)[C@@H](O)[C@H](O[C@@H]8O[C@H](CO)[C@@H](O)[C@H](O)[C@H]8O)[C@H]7O)[C@H](O)[C@H]6O)CC[C@]5(C)[C@H]4CC[C@]3(C)[C@H]1[C@@H]2C &field=IC50 returns 7.7

GET /value?item= CC1CCC2(OC1)OC1CC3C4CC(O)C5CC(OC6OC(CO)C(OC7OC(CO)C(O)C(OC8OCC(O)C(O)C8O)C7OC7OC(CO)C(O)C(O)C7O)C(O)C6O)C(O)CC5(C)C4CCC3(C)C1C2C (centres unmarked) [Aginoside (3), aginoside] &field=IC50 returns 3.6
